Test system: SW-620 colon
Assay: NCI tumour cell line growth inhibition, 48 h
property name: TGI

Look over these answered cases.
May I ask what TGI has been recorded for O=C(Nc1nc(=S)[nH][nH]1)C(=O)C(c1cnc2ccc([N+](=O)[O-])cc2n1)[N+](=O)[O-] (stereo not given) ?
> 100 µM

Would you mind doing CCN1C(=O)N(CC)C2C1NC(=S)N2/N=C/C=C/c1ccccc1 (stereo not given) as well?
> 100 µM

Further cases:
For "Nc1c(C(=O)O)c2ccc([N+](=O)[O-])cc2c(=O)n1-c1nc2ccccc2s1" , what is its reported TGI?
> 100 µM

What do you get for O=C1C2C(C(=O)N1Cc1ccccc1)N(Cc1ccccc1)C(=O)N2Cc1ccccc1 (stereo not given) ?
> 100 µM

Same again, this time with NC1=NC(c2ccccc2Cl)c2c(n[nH]c2N)N1 (stereo not given)
> 100 µM

====

Tested on: NCI/ADR-RES ovarian
Assay: NCI tumour cell line growth inhibition, 48 h
Recorded measurements of TGI, one per entry
Provide the reading as a plain figure in µM.

Entry under review: CC[C@]1(c2ccc3c(c2)OCO3)C=[N+]([O-])O[C@H](OC2CCCC2(c2ccccc2)c2ccccc2)[C@@H]1OC(C)=O (stereo not given in full) . Reported TGI?
4.88

Continuing:
Give the measured TGI of "O=c1[nH]c2ccccc2cc1-c1nnc(Cc2ccccc2)o1" .
71.1

====

System: IGROV1 ovarian
Assay: NCI tumour cell line growth inhibition, 48 h
property name: TGI (µM)
API: value field is a number in µM; no unit string.

// solved cases for TGI follow
Field request: TGI | item: "O=C(Nc1ccccc1C(=O)NC(=O)c1ccccc1NC(=O)c1ccccc1)c1ccccc1"
5.93

Query COS(=O)c1cc(Cl)cc(Cl)c1OC(=O)CSSCC(=O)Oc1c(Cl)cc(Cl)cc1S(=O)OC (stereo unspecified) next
46.5

// repeat for "Cn1c(CO)ccc1-c1ccc(-c2ccc(CO)[se]2)[se]1" and report
12.4

Try "Cc1nnc(SCc2nc(C#N)c(C#N)nc2CSc2nnc(C)s2)s1" next.
33.5

Now look at this entry.
Bench note: what TGI did "OCCNc1nc2ccccc2c2[nH]c3ccccc3c12" show?
6.1

====

Entries annotated with measured TGI
System: NCI/ADR-RES ovarian
Test: NCI tumour cell line growth inhibition, 48 h

Return reported TGI; argument: "CN(C)c1cccc2c(S(=O)(=O)NCCN)cccc12"
> 100 µM

Next:
May I ask what TGI has been recorded for CCCC(O)[C@@]1(CC)CC(C)C(O)(C2(C)C[C@H](C)[C@@H](C(CC)C(=O)C(C)[C@@H](O)[C@H](C)C3OC(O)(C(CC)C(=O)O)[C@@H](C)C(O)C3CC)O2)O1 (stereo not given in full) ?
1.82 µM

// next record "O=C1Nc2ccc(-c3cccnc3)cc2/C1=C/c1cc(Br)c(O)c(Br)c1"
> 25 µM

Another compound to check: "COc1ccccc1N=Nc1c(O)ccc2ccccc12"
> 100 µM

Check "COC(=O)[C@H](C)NC(=O)[C@H](NS(=O)(=O)c1nc2ccccc2s1)c1ccccc1" too.
> 100 µM

====

System: BT-549 breast
Assay: NCI tumour cell line growth inhibition, 48 h
The compounds listed here are annotated with their GI50.

These solved cases illustrate the format of a correct answer.
Fill in the blank: the reported GI50 of "O=c1[nH]c2ccccc2cc1-c1nnc(Cc2ccccc2)o1" is ____.
2.56 µM

Field entry: "Cc1ccc2ccc3c4ccccc4ccc3c2c1"
30.9 µM

Next up: "Nc1c(C(=O)Nc2ccccc2)sc2nc3c(cc12)C(=O)CCC3"
3.17 µM

Would you kindly repeat that for "Cc1ccccc1Nc1cc(O)c2c(=O)cc(-c3ccccc3)oc2c1" ?
4.03 µM

Could you now look at the following compound, please?
Give the measured GI50 of OCC1OC(OC2(CO)OC(CO)C(O)C2O)C(O)C(O)C1O (stereo not given) .
> 100 µM

Source listed as PubChem BioAssay (NCI).
